Measured Percent Control of individual entries
System: MEK1;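 further: KINOMEscan scanMAX binding as percent activity remaining versus control; lower means stronger binding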
Construct: gene MAP2K1
CONDITIONS: Compound Concentration (nM):1000
Give just the number in %; leave the unit off.

COc1ccc2cc(-c3c(-c4ccncc4)nc(-c4ccc(S(C)(=O)=O)cc4C)n3C)ccc2c1	85
COc1cc2ncn(-c3cc(O[C@H](C)c4ccccc4Cl)c(C(N)=O)s3)c2cc1OC [GSK237701A]	90
CCS(=O)(=O)c1ccc(OC)c(Nc2ncc(-c3cccc(F)c3)o2)c1 [GW621970X]	93

Query: Which Percent Control value is on record for NS(=O)(=O)c1ccc(N/N=C2\C(=O)Nc3ccc(-c4cnco4)cc32)cc1 ?
Result: 91
